These measurements were taken from patent US20240376185A1.

# test-target: tetanus neurotoxin (TeNT), authentic tetanus holotoxin (Clostridium tetani, UniProt P04958 2-1315)
# Sequence (P04958 2-457 limits assumed, chain 1 of 2): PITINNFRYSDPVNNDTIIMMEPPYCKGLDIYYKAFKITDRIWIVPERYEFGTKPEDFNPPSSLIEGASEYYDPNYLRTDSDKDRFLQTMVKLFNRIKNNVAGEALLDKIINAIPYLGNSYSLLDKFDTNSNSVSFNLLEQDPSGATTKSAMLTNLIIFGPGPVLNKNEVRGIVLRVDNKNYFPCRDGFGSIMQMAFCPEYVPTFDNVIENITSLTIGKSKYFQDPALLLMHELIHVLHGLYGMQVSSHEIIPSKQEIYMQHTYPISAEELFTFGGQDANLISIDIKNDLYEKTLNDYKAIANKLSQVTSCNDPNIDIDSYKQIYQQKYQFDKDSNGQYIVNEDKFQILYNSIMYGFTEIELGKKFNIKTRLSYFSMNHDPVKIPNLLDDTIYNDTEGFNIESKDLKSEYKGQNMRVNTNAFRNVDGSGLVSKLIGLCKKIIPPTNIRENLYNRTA
# Sequence (P04958 458-1315 limits assumed, chain 2 of 2): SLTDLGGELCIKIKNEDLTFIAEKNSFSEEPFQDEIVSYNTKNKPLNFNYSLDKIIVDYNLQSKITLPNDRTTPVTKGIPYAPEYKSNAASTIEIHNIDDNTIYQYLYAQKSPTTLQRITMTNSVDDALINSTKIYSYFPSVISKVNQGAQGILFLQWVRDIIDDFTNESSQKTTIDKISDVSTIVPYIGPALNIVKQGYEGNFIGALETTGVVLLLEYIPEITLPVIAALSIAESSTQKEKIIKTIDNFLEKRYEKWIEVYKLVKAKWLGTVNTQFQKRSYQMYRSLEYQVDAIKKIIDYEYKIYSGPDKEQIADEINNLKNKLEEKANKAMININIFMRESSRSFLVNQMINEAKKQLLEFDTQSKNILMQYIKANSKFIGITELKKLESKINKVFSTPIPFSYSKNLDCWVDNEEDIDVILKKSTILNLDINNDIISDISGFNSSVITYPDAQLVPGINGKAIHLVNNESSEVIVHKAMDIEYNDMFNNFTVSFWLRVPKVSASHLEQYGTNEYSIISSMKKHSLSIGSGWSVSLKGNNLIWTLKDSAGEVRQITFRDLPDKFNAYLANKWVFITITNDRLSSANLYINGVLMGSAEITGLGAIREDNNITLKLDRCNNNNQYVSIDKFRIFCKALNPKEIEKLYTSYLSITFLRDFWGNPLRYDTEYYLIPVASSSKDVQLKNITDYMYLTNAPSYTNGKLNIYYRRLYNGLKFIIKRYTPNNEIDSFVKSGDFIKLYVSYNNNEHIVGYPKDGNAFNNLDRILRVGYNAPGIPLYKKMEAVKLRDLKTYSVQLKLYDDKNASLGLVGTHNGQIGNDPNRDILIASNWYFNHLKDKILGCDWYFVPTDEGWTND
# protocol-summary: ELISA, directly coated TeNT, biotinylated binder

binder | maximal absorbance at 450 nm
SVT08L (VHH) VHH: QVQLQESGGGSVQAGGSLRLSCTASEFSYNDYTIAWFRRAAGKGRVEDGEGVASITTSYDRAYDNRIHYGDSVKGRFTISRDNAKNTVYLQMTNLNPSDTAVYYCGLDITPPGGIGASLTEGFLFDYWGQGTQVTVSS | 1.57
SVT15L-3FW4M (VHH) VHH: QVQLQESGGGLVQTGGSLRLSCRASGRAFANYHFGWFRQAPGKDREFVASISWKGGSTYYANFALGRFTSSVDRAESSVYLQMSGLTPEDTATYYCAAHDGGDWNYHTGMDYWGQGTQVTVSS | 1.37
SVT34L (VHH) VHH: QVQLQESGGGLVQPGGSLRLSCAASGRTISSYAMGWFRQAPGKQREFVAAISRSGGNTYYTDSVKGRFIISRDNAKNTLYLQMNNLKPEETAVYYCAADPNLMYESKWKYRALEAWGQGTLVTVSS | 1.29
SVT13L (VHH) VHH: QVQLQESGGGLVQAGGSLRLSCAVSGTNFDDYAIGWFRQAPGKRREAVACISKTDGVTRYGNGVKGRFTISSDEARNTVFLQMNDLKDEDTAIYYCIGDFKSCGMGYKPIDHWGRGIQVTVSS | 1.48
SVT05L (VHH) VHH: QVQLQESGGGLVQPGGSLRLSCSASGFSFTDDYGIGWFRSGPGKGREAVAPIADREAVAAIALSDGNTYYSASAKGRFTISRDNAKSTAYLQMNNLKPEDTATYYCAADFWGYGMSWPMATLWEYWGQGIQVTVSS | 1.26
